- Run Description: Oral bioavailability in human
- Stated Conditions: in vivo
Metric Name: bioavailability (%)
Numbers only, in %.

CCOC(=O)C1=C[C@@H](OC(CC)CC)[C@H](NC(C)=O)[C@@H](N)C1 [OSELTAMIVIR]; 75

Hi! Can you tell me bioavailability for each of these compounds?
1. O=C(O)[C@@H]1N=C(c2ccccc2)c2cc(Cl)ccc2NC1=O
2. COc1ccc([C@H](CN(C)C)C2(O)CCCCC2)cc1
3. NCC1(CC(=O)O)CCCCC1 [GABAPENTIN]
4. CC[C@@]1(c2ccccc2)C(=O)NC(=O)N(C)C1=O [(R)-METHYLPHENOBARBITAL]
5. CN1C[C@H](CNC(=O)OCc2ccccc2)C[C@@H]2c3cccc4c3c(cn4C)C[C@H]21 [METERGOLINE]

Output:
[91, 45, 60, 73, 23]

Hi! Can you tell me bioavailability for each of these compounds?
1. CC[C@H](OC(C)=O)C(C[C@H](C)N(C)C)(c1ccccc1)c1ccccc1 [LEVOMETHADYL ACETATE]
2. O=C1CN=C(c2ccccc2)c2cc([N+](=O)[O-])ccc2N1 [NITRAZEPAM]
3. CCC(=O)C(C[C@@H](C)N(C)C)(c1ccccc1)c1ccccc1 [LEVOMETHADONE]
4. C[C@@H](NC(C)(C)C)C(=O)c1cccc(Cl)c1
5. O=C1Nc2ccc(Cl)cc2C(c2ccccc2Cl)=N[C@H]1O [(S)-LORAZEPAM]
6. NS(=O)(=O)c1cc([C@@]2(O)NC(=O)c3ccccc32)ccc1Cl
7. CCC(=O)C(C[C@H](C)N(C)C)(c1ccccc1)c1ccccc1 [ESMETHADONE]
8. COc1ccc([C@@H](CN(C)C)C2(O)CCCCC2)cc1 [(S)-VENLAFAXINE]

Output:
[47, 78, 92, 70, 93, 64, 92, 45]
